Biological target: T1, extracellular domain of human ROR2 (human, UniProt Q01974 34-403)
T1 construct: bought protein; biotinylated in the bivalent assay format; also called Acro Cat. No. RO2-H52E5
T1 sequence (Q01974 34-403 limits assumed): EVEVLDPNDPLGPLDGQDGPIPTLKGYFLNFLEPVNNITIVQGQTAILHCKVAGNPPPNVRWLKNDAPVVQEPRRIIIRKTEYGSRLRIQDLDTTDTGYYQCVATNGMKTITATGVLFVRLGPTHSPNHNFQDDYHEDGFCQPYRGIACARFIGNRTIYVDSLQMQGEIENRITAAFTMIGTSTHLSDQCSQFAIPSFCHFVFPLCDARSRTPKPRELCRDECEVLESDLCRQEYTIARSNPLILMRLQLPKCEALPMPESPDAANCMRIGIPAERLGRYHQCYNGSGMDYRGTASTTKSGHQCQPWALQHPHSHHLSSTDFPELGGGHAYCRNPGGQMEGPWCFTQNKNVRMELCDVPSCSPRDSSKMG
Test: BLI, IgG1 on biosensor, soluble ROR ectodomain
RECORDED_ENDPOINT: binding result

BINDER	VALUE
I2C-11 IgG1 (antibody, V domains shown, human IgG1) VH: EVQLVESGGGLVQPGGSLRLSCAASGFTFGSYFIHWVRQAPGKGLEWVAAIFPAGGYTYYADSVKGRFTISADTSKNTAYLQMNSLRAEDTAVYYCARYGSMGGAFDYWGQGTLVTVSS VL: DIQMTQSPSSLSASVGDRVTITCRASQSVSSAVAWYQQKPGKAPKLLIYSASSLYSGVPSRFSGSRSGTDFTLTISSLQPEDFATYYCQQYYWFPGTFGQGTKVEIK	binds
I2C-16 IgG1 (antibody, V domains shown, human IgG1) VH: EVQLVESGGGLVQPGGSLRLSCAASGFTFSSYWIHWVRQAPGKGLEWVAAIHPSGSYTYYADSVKGRFTISADTSKNTAYLQMNSLRAEDTAVYYCARVGLLVTSVMDYWGQGTLVTVSS VL: DIQMTQSPSSLSASVGDRVTITCRASQSVSSAVAWYQQKPGKAPKLLIYSASSLYSGVPSRFSGSRSGTDFTLTISSLQPEDFATYYCQQYYYFPGTFGQGTKVEIK	binds
